tested on: OVCAR-5 ovarian; experiment: NCI tumour cell line growth inhibition, 48 h
For each record, write down the corresponding TGI.
One number for each entry, in µM.

Consider the following illustrative entries.
{"columns": ["MOLECULE", "ASSAY_SYSTEM", "UNIT_ABBREVIATION", "TGI"],
 "data": [
  ["CC1(O)COCCCCOc2c(CN)cccc2NC(=O)c2nc(cnc2N)-c2ccc(cc2)S(=O)(=O)C(C)(C)C1 (centres undefined)", "OVCAR-5 ovarian", "µM", 3.56],
  ["CCc1ccc2c(c1)C(=O)c1c-2n(CCCN)c(=O)c2cc([N+](=O)[O-])ccc12", "OVCAR-5 ovarian", "µM", 3.59],
  ["COCCOC1=C(Cl)C(=O)c2c(O)ccc(O)c2C1=O", "OVCAR-5 ovarian", "µM", 13.7],
  ["CCOC(=O)c1cc(-c2ccccc2)[nH]c1N/N=C/c1c(Cl)cccc1Cl", "OVCAR-5 ovarian", "µM", 98],
  ["CN1CCc2cc3c4cc2C1Cc1ccc(cc1)Oc1cc(ccc1O)CC1c2c(cc(O)c(c2O4)O3)CCN1C (centres undefined)", "OVCAR-5 ovarian", "µM", 14.8]
]}

Hey, quick one: what's TGI for each of these?
1. CNCCNc1nc2ccccc2c2c(=O)c3cccc(C)c3sc12
2. COc1ccc2nc3cc(Cl)ccc3c(Nc3cc(C(C)C)c(O)cc3C)c2c1
3. COc1cc(-c2nn(-c3cccc(NC(=O)CCN4CCN(C)CC4)c3)cc2-c2ccncc2)ccc1Cl

10.6
9.48
5.82

Can you look up the measured TGI of CN1CCN(c2ccc(Nc3ncc4cc5n(c4n3)C3(CCCCC3)CNC5=O)nc2)CC1 for me?
12.2

Reference for the values: PubChem BioAssay (NCI)
